The reported measurements were obtained from ChEMBL document CHEMBL1142918.

- system-name: Carbonic anhydrase 1 (Homo sapiens, UniProt P00915)
- Sequence (P00915 whole entry): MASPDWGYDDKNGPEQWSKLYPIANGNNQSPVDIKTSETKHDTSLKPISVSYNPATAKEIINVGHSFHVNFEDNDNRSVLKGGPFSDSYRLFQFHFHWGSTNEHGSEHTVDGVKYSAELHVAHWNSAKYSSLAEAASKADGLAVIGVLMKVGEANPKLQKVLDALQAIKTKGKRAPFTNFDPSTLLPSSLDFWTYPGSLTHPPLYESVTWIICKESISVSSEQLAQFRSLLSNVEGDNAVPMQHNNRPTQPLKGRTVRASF
recorded-endpoint: pKi
Schema: pKi number; meaning minus log10 of the concentration expressed in molar units.

CCON(CC(=O)NO)S(=O)(=O)c1ccc(OC)cc1; 5.05
CCC(C)ON(C(C(=O)NO)C(C)C)S(=O)(=O)c1ccc(OC)cc1 (centres undefined); 5.01
CC(NOCc1ccc(Cl)cc1)C(=O)NO (centres undefined); 5.01

// switching to the query compound
Task: What value of pKi on Carbonic anhydrase 1 (Homo sapiens, UniProt P00915) does "O=C(CNOCc1ccc(Cl)cc1)NO" have?
Result: 5.00

* * *

- system-name: Matrix metalloproteinase-9 (Homo sapiens)
- Sequence (P14780 whole entry): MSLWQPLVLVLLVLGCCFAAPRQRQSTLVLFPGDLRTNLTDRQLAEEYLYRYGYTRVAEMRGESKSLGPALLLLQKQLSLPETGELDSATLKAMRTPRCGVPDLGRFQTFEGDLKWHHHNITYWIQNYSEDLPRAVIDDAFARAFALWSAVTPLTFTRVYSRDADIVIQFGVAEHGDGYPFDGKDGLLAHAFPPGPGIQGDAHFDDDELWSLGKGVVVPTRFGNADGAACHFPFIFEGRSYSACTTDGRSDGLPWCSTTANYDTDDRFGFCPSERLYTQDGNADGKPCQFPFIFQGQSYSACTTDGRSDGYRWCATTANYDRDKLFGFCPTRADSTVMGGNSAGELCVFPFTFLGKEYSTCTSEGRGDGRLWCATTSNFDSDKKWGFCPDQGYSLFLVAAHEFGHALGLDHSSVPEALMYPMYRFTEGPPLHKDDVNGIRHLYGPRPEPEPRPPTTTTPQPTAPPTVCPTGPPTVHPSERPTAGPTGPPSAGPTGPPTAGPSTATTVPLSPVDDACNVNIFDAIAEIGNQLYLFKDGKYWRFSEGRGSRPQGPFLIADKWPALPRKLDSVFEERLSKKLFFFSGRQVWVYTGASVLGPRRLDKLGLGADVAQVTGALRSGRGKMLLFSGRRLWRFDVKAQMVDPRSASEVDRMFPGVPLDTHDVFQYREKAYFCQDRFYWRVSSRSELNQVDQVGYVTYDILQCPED
Attribute: pIC50
Schema: pIC50 number; meaning minus log10 of the concentration expressed in molar units.

The examples below pair each entry with its known result.
CCCCC(NOCc1ccccc1)C(=O)NO (stereo not given); 4.09
COc1ccc(S(=O)(=O)N(CC(=O)NO)OCc2ccc(Cl)cc2)cc1; 6.48
COc1ccc(S(=O)(=O)N(CC(=O)NO)OC2C3CC4CC(C3)CC2C4)cc1 (stereo not given); 5.70
CCC(C)C(NOCc1ccccc1)C(=O)NO (stereo not given); 3.45

// switching to the query compound
Task: What value of pIC50 on Matrix metalloproteinase-9 (Homo sapiens) does "COc1ccc(S(=O)(=O)N(CC(=O)NO)OCc2ccccc2)cc1" have?
Result: 6.06
